Test system: Staphylococcus aureus ATCC29213 rpoB^H418Y
Assay: microbe, parasite or virus in culture
Format: cell-based
Conditions: Staphylococcus aureus ATCC29213 rpoB^H418Y, rifR; read-out: Antimicrobial activity (MIC)
Reported MIC values for the following compounds.

Below: 2 compounds and their reported MIC.
{"columns": ["MOLECULE", "MIC"],
 "data": [
  ["CO[C@H]1/C=C/O[C@@]2(C)Oc3c(C)c(O)c4c(c3/C2=N/OCC(=O)N2CCN(c3cc5c(cc3F)c(=O)c(C(=O)O)cn5C3CC3)CC2)C(=O)C(N2CCOCC2)=C(NC(=O)/C(C)=C\\C=C\\[C@H](C)[C@H](O)[C@@H](C)[C@@H](O)[C@@H](C)[C@H](OC(C)=O)[C@@H]1C)C4=O", "0.125 to 16 µg/mL"],
  ["CO[C@H]1/C=C/O[C@@]2(C)Oc3c(C)c(O)c4c(c3/C2=N/OC(=O)c2ccncc2)C(=O)C=C(NC(=O)/C(C)=C\\C=C\\[C@H](C)[C@H](O)[C@@H](C)[C@@H](O)[C@@H](C)[C@H](OC(C)=O)[C@@H]1C)C4=O", "0.125 to 16 µg/mL"]
]}

Q) Identify measured MIC obtained with Staphylococcus aureus ATCC29213 rpoB^H418Y for `CO[C@H]1/C=C/O[C@@]2(C)Oc3c(C)c(O)c4c(c3/C2=N/OCCN2CCC(O)CC2)C(=O)C=C(NC(=O)/C(C)=C\C=C\[C@H](C)[C@H](O)[C@@H](C)[C@@H](O)[C@@H](C)[C@H](OC(C)=O)[C@@H]1C)C4=O` .
A) 0.125 to 16 µg/mL

---

Test system: Staphylococcus aureus ATCC29213
Experiment: MIC, microbroth dilution
Assay type: cell-based
Settings: Staphylococcus aureus ATCC29213, rifS; read-out: Antimicrobial activity (MIC)
READOUT: MIC

{"columns": ["COMPOUND", "MIC"],
 "data": [
  ["CO[C@H]1/C=C/O[C@@]2(C)Oc3c(C)c(O)c4c(c3/C2=N/O)C(=O)C(N2CCOCC2)=C(NC(=O)/C(C)=C\\C=C\\[C@H](C)[C@H](O)[C@@H](C)[C@@H](O)[C@@H](C)[C@H](OC(C)=O)[C@@H]1C)C4=O", "0.004 to 0.5 µg/mL"]
]}

Q) Output measured MIC for this item: COc1c(N2CCN(C(=O)CO/N=C3/c4c5c(C)c(O)c6c4C(=O)C(N4CCOCC4)=C(NC(=O)/C(C)=C\C=C\[C@H](C)[C@H](O)[C@@H](C)[C@@H](O)[C@@H](C)[C@H](OC(C)=O)[C@H](C)[C@@H](OC)/C=C/O[C@@]3(C)O5)C6=O)C(C)C2)c(F)cc2c(=O)c(C(=O)O)cn(C3CC3)c12 (some centres unmarked)
A) 0.004 to 0.5 µg/mL

---

Item-by-item account of MIC
Test system: Staphylococcus aureus ATCC29213
Experiment: MIC, microbroth dilution
Format: cell-based
Conditions: Staphylococcus aureus ATCC29213, rifS; read-out: Antimicrobial activity (MIC)

{"columns": ["COMPOUND", "EXPERIMENTAL RESULT"],
 "data": [
  ["CO[C@H]1/C=C/O[C@@]2(C)Oc3c(C)c(O)c4c(c3/C2=N/OCCN2CCOCC2)C(=O)C=C(NC(=O)/C(C)=C\\C=C\\[C@H](C)[C@H](O)[C@@H](C)[C@@H](O)[C@@H](C)[C@H](OC(C)=O)[C@@H]1C)C4=O [Example 24]", "0.004 to 0.5 µg/mL"]
]}

Continue with the compound presented below.
Q) Give MIC for this entry on Staphylococcus aureus ATCC29213: CO[C@H]1/C=C/O[C@@]2(C)Oc3c(C)c(O)c4c(c3/C2=N/O)/C(=N/O)C=C(NC(=O)/C(C)=C\C=C\[C@H](C)[C@H](O)[C@@H](C)[C@@H](O)[C@@H](C)[C@H](OC(C)=O)[C@@H]1C)C4=O [Example 4]
A) 0.004 to 0.5 µg/mL

---

Tested on: Staphylococcus aureus ATCC29213
Assay: MIC, microbroth dilution
Assay type: cell-based
Conditions: Staphylococcus aureus ATCC29213, rifS; read-out: Antimicrobial activity (MIC)
Overview of reported MIC across a group of compounds:

The examples below pair each entry with its known result.
{"columns": ["MOLECULE", "MIC"],
 "data": [
  ["C=CCO/N=C1/c2c3c(C)c(O)c4c2C(=O)C=C(NC(=O)/C(C)=C\\C=C\\[C@H](C)[C@H](O)[C@@H](C)[C@@H](O)[C@@H](C)[C@H](OC(C)=O)[C@H](C)[C@@H](OC)/C=C/O[C@@]1(C)O3)C4=O", "0.004 to 0.5 µg/mL"],
  ["CO[C@H]1/C=C/O[C@@]2(C)Oc3c(C)c(O)c4c(c3/C2=N/O)C(=O)C(CO)=C(NC(=O)/C(C)=C\\C=C\\[C@H](C)[C@H](O)[C@@H](C)[C@@H](O)[C@@H](C)[C@H](OC(C)=O)[C@@H]1C)C4=O", "0.004 to 0.5 µg/mL"]
]}

Proceed to the following item.
Q) Recall and state the measured MIC for `CO[C@H]1/C=C/O[C@@]2(C)Oc3c(C)c(O)c4c(c3/C2=N/O)C(=O)C(/C=N/N2CCN(C)CC2)=C(NC(=O)/C(C)=C\C=C\[C@H](C)[C@H](O)[C@@H](C)[C@@H](O)[C@@H](C)[C@H](OC(C)=O)[C@@H]1C)C4=O` .
A) 0.004 to 0.5 µg/mL
